# SYSTEM: T1, human glucagon receptor (GCGr) (Homo sapiens, UniProt P47871)
# T1 construct: expressed in transfected cells; host or cells: HEK293s or CHO cells
# T1 sequence (P47871 26-477): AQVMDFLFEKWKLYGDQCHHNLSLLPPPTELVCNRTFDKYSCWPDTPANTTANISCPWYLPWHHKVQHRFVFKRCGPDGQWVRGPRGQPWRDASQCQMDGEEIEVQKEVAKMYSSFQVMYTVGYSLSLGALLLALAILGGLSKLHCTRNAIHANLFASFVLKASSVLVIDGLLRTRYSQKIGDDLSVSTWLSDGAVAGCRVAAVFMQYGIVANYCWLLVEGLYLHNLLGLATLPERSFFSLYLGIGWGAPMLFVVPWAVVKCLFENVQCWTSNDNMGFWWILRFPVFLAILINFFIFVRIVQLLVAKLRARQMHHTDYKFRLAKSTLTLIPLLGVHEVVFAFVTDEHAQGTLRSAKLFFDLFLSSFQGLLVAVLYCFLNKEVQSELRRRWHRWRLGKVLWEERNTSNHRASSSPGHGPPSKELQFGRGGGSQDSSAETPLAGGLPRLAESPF
# ASSAY_REMARKS: BSA-cAMP assay, cells expressing human glucagon receptor
# Type: cell-based
# CONDITION_SET: Batch 1, read-out: hGCGr cAMP activity EC50
TEST_READOUT: EC50 (nM)

1. IP315 (protein) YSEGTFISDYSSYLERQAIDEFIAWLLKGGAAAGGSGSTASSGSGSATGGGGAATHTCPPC
2. IP401 (protein) YSEGTHTSDLSKLLERQAIDEFIAWLLKGGAAAGGSGSTASSGSGSATGGGGAATHTCPPC
Asked: Select one: 1 or 2 . Criterion: greater recorded EC50. Selection: enter the item's label.
Given back: 2
(2: 3100 nM, 1: 280 nM)
